Attribution: patent US10683292B2

# maps each entry to its IC50
Assayed target: hChoKβ FL (Homo sapiens)
Construct: hChoKβ full length (FL), corresponding to aminoacids 2-395; GST (N, cleaved yes); Prescission Protease recognition site (N, cleaved yes)
Sequence (Q9Y259 2-395): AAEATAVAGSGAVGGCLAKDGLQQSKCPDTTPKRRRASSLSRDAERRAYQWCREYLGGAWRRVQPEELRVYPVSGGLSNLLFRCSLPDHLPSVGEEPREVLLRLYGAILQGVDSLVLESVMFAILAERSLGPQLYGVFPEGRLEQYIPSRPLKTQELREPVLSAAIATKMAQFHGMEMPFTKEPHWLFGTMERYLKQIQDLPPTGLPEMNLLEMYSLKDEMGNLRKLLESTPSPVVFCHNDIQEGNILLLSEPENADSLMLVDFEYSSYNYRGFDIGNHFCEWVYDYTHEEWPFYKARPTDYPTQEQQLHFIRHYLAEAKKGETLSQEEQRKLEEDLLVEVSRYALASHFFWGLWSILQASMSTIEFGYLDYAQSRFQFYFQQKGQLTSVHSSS
Protocol details: Biochemical kinase inhibition assay (Kinase-Glo Luminescent Kinase Assay) on hChoKβ FL
Measurement parameters: ATP 5 μM, choline 20 μM, 60 minutes at rt; read-out: IC50 ChoKβ
Write the number in µM without appending the unit.

Consider the following illustrative entries.
compound="Nc1nc(Cl)nc2c1ncn2[C@H]1CC[C@@H](C(=O)Nc2ccc(C(=O)NC3CCCCC3)cc2)CC1 [cpd 71]" experimental_endpoint=IC50 unit_string=µM measurement=2.84
compound="CS(=O)(=O)c1ccc2nc(NC(=O)[C@H]3CC[C@@H](n4cnc5c(N)nc(Cl)nc54)CC3)sc2c1 [cpd 89]" experimental_endpoint=IC50 unit_string=µM measurement=4.16
compound="Nc1nc(Cl)nc2c1ncn2[C@H]1CC[C@@H](C(=O)Nc2nc3c(s2)CN(C2CC2)CC3)CC1 [cpd 184]" experimental_endpoint=IC50 unit_string=µM measurement=6.71
compound="COc1cccc2sc(NC(=O)[C@H]3CC[C@@H](n4cnc5c(N)nc(Cl)nc54)CC3)nc12 [cpd 91]" experimental_endpoint=IC50 unit_string=µM measurement=7.38
compound="C#Cc1nc(N)c2ncn([C@H]3CC[C@@H](C(=O)Nc4nc5c(OC)cccc5s4)CC3)c2n1 [cpd 119]" experimental_endpoint=IC50 unit_string=µM measurement=7.7

Please examine the following record next.
Record summary for Nc1nc(Cl)nc2c1ncn2[C@H]1CC[C@@H](C(=O)Nc2nc3cc4c(cc3s2)OCO4)CC1 [cpd 186] : reported IC50 = 5.47

* * *

Assayed target: Δ49N-hChoKα (Homo sapiens)
Construct: cDNA fragment 362-1534, corresponding to aminoacids 50-457; GST (N, cleaved yes); Prescission Protease recognition site (N, cleaved yes); made in house; host or cells: Escherichia coli BL21pLysS (DE3)
Sequence (P35790 50-457, stated change not applied): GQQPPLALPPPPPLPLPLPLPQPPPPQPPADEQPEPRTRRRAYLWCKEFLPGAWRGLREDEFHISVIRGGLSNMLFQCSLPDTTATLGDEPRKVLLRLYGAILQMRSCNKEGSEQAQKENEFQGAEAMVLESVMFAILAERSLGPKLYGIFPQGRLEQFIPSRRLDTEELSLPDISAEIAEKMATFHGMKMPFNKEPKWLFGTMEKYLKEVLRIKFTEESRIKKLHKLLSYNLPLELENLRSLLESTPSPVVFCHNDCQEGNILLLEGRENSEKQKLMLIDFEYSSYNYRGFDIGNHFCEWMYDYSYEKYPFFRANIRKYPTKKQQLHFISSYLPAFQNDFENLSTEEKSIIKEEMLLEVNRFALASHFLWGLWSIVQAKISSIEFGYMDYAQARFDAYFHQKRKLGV
Protocol details: Biochemical kinase inhibition assay (Kinase-Glo Luminescent Kinase Assay) on Δ49N-hChoKα
Measurement parameters: ATP 5 μM, choline 5 μM, 60 minutes at rt; read-out: IC50 ChoKα
Output: class label from IC50. Mapping: lower range = under 40 nM, middle range = from 40 nM up to 200 nM, upper range = 200 nM and over

compound="CC(=O)Nc1ccc2nc(NC(=O)[C@H]3CC[C@@H](n4cnc5c(N)nc(Cl)nc54)CC3)sc2c1 [cpd 183]" assigned_class="lower range"

[Q] In plain terms, what class is COc1cccc(C(=O)N[C@H]2CC[C@@H](n3cnc4c(N)nc(Cl)nc43)CC2)c1 [cpd 144] ?
[A] upper range

[Q] Lab note: sort Nc1nc(Cl)nc2c1ncn2[C@H]1CC[C@@H](C(=O)Nc2nc3ccc(Br)cc3s2)CC1 [cpd 175] into the matching IC50 band.
[A] middle range

[Q] Which class does COc1cccc(NC(=O)[C@H]2CC[C@@H](n3cnc4c(N)nc(-c5ccc(C(=O)Nc6ccc(CN7CCN(C)CC7)cc6)cc5)nc43)CC2)c1 [cpd 29] fall in?
[A] upper range

[Q] Kindly identify the class of Nc1nc(Cl)nc2c1ncn2[C@H]1CC[C@@H](C(=O)Nc2nc3ccc(Cl)cc3s2)CC1 [cpd 90] .
[A] lower range

[Q] Hello team, could you let me know which band the following compound falls into: Nc1nc2ccc(OC(=O)[C@H]3CC[C@@H](n4cnc5c(N)nc(Cl)nc54)CC3)cc2s1 [cpd 159]
[A] middle range

[Q] Please classify: COc1cccc2sc(NC(=O)[C@H]3CC[C@@H](n4cnc5c(N)nc(I)nc54)CC3)nc12 [cpd 116]
[A] middle range

[Q] Using the reported IC50, which band applies to COc1cccc(NC(=O)[C@H]2CC[C@@H](n3cnc4c(N)nc(I)nc43)CC2)c1 [cpd 41] ?
[A] upper range

[Q] Which category does the recorded IC50 put CS(=O)(=O)c1ccc2nc(NC(=O)[C@H]3CC[C@@H](n4cnc5c(N)nc(Cl)nc54)CC3)sc2c1 [cpd 89] in?
[A] middle range
